Overview of recorded log10 of kon for various binders
Target: T1, recombinant human IL-23 (human, UniProt P29460 23-328)
T1 construct: also called Human recombinant IL-23
T1 sequence 1: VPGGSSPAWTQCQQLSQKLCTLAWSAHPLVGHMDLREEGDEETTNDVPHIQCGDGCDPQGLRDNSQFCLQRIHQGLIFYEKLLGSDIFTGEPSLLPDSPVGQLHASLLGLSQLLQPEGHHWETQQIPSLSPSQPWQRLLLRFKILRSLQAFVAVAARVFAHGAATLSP
T1 sequence 2: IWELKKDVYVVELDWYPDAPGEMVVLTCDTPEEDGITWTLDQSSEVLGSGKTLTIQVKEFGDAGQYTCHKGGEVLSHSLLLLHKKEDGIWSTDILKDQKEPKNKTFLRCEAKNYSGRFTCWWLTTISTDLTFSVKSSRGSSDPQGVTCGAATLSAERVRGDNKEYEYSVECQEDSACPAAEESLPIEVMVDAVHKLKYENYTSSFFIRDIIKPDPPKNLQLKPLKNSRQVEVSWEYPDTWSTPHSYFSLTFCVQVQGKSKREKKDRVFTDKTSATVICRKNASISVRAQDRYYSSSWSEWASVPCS
Test: BLI, Fortebio Octet; hybridoma-derived antibody
quantity kind: log10 of kon (log10 of the value in M⁻¹ s⁻¹)

[
  {
    "binder": "74H3 (antibody, V domains shown, Mouse monoclonal antibody from hybridoma; also called 74H3Vk; 74H3VH) VH: EVQLQQSGPELVKPGASVKMSCKASGYTFTRYLMHWVKQKPGQGLEWIGYINPYNDGTKYNERFKGKATLTSDKSSSTAYMELSSLTSEDSAVYYCARNWDVPYWGQGTLVTVSA VL: DIQMTQSPASLSASVGETVIFTCRASENIDSYLAWYQQKQGKSPQLLVYAATNLADGVPSRFSGSGSGTQYSLKINSLQSEDVARYYCLHYYSTPFTFGSGTELEIK",
    "quantity kind": "log10 of kon",
    "test result": 4.49
  },
  {
    "binder": "18D3 (antibody, V domains shown, Mouse monoclonal antibody from hybridoma; also called 18D3vk; 18D3vh) VH: EVQLQQSGPELVKPGASVKMSCKASGYTFTRYLIHWVKQKPGQGLEWIGYINPYNDGTKYNEKFKGKATLTSDKSSSTAYMELSSLTSEDSAVYYCTSNWDLDYWGQGTTLTVSS VL: DIVMTQSPATLSVTPGDRVSLSCRASQSISDYLYWYQQKSHESPRLLIKFASQSISGIPSRFTGSGSGSDFTLSIDSVEPDDVGVFFCQNGHSFPFTFGGGTKLEIK",
    "quantity kind": "log10 of kon",
    "test result": 5.50
  },
  {
    "binder": "18C4 (antibody, V domains shown, Mouse monoclonal antibody from hybridoma; also called 18C4vk; 18C4vh) VH: EVQLQQSGPEVVKPGASVKMSCKASGYTFTSSVIHWVKQKAGQGLEWIGYINPYNDGTKYNEKFKGKATLTSDRSSSTAYMELSSLTSEDSAVYYCTRRLDEAYWGQGTLVTVSA VL: DIVMTQSPATLSVTPGDRVSLSCRASQSISEYLHWYQQKSHESPRLLIKYASQSISGIPSRFSGSGSGSDFTLSINSVEPEDVGVYYCQNGHSFPFTFGSGTKLEIK",
    "quantity kind": "log10 of kon",
    "test result": 5.58
  },
  {
    "binder": "34G3 (antibody, V domains shown, Mouse monoclonal antibody from hybridoma; also called 34G3Vk; 34G3VH) VH: EFQLQQSGPELVKPGASVKISCKASGYSFTDYNMNWVKQSKGKSLEWIGVIIPNYGFTSYNQNFKGKATLTVDQSSSTAHMQLNSVTSEDSAVYYCVRDGGILLWYLDVWGTGTTVTVSS VL: DVVMTQTPLSLPVSLGDQASISCRSSQSLVHSNGNTYLHWYLQKPGQSPKLLIYKVSNRFSGVPDRFSGSGSGTDFTLKISRVEAEDLGVYFCSQSTHVPYTFGGGTKLEIN",
    "quantity kind": "log10 of kon",
    "test result": 5.96
  },
  {
    "binder": "18E5 (antibody, V domains shown, Mouse monoclonal antibody from hybridoma; also called 18E5vk; 18E5vh) VH: EVQLQQSGPELVKPGAAVKMSCKASGYTFTRYLIHWVKQKPGQGLEWIGYINPYNDGTKYNEKFKGKATLTSDKSSSTAYMELSSLTSEDSAVYYCTSNWDLDYWGQGTTLTVSS VL: DIVMTQSPATLSVTPGDRVSLSCRASQSISDYLYWYQQKSHESPRLLIKFASQSISGIPSRFTGSGSGSDFTLSIDSVEPDDVGVFFCQNGHSFPFTFGGGTKLEIK",
    "quantity kind": "log10 of kon",
    "test result": 5.52
  }
]
